# Assay System: Alpha-2A adrenergic receptor (Rattus norvegicus)
# Sequence (P22909 whole entry): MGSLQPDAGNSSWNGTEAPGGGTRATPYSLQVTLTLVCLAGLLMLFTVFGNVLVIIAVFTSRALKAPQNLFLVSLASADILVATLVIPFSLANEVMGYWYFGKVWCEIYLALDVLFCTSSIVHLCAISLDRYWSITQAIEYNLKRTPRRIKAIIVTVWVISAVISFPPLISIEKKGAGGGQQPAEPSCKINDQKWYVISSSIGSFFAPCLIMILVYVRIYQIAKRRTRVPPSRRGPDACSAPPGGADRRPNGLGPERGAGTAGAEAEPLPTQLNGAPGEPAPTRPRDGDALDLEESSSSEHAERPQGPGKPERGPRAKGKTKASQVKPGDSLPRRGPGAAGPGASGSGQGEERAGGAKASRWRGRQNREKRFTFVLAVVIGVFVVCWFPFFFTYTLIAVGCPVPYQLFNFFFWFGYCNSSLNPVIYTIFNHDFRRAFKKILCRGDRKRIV
The entries below pair molecules with Ki values for Alpha-2A adrenergic receptor (Rattus norvegicus), as found in several publications.
Criterion: Ki strictly less than 500 nM. Met: Criterion met. Not met: Criterion not met.

Molecule: CCC(=O)Nc1c(C)cc(C(=O)N2CCC(N(C)CCc3ccccc3)CC2)cc1C
Label Value: Criterion not met

Molecule: COc1ccccc1N1CCN(CCC2C(=O)c3ccccc3C(C)(C)C2=O)CC1 (centres undefined)
Label Value: Criterion met

Molecule: COc1cc(N)c(Cl)cc1C(=O)CCC1CCN(CCNS(C)(=O)=O)CC1
Label Value: Criterion not met

Molecule: COC(=O)C1=COC(C)C2CN3CCc4c([nH]c5ccccc45)C3CC12 (centres undefined)
Label Value: Criterion met

Molecule: CCC(=O)N1c2ccccc2C(N(C(C)=O)c2ccccc2)CC1C (centres undefined)
Label Value: Criterion not met

Molecule: CCCN1CCOC2c3cc(C(N)=O)ccc3CCC21 (centres undefined)
Label Value: Criterion not met

Molecule: COC(=O)C1=CO[C@@H](C)[C@@H]2CN3CCc4c([nH]c5ccccc45)[C@H]3C[C@H]12
Label Value: Criterion not met

Molecule: COc1cccc(OC)c1OCCNCC1Oc2ccccc2OC1c1ccccc1 (centres undefined)
Label Value: Criterion met

Molecule: CC1CC(N(C(=O)C2CC2)c2ccccc2)c2ccccc2N1C(=O)c1ccccc1 (centres undefined)
Label Value: Criterion not met
